Consider the following pKi values measured on Mu-type opioid receptor (Mus musculus).
Sequence (P42866 whole entry): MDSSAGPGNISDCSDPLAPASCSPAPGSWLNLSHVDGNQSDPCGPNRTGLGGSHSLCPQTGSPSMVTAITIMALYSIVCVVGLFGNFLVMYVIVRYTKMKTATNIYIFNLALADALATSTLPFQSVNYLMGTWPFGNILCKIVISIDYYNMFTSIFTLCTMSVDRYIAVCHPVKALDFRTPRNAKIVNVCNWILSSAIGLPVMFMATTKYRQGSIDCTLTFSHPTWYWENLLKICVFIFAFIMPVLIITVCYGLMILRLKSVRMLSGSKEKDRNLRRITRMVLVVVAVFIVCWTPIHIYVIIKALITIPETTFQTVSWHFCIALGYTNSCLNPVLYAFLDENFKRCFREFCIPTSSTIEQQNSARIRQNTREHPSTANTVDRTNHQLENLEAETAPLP
One number for each entry, as −log10 of the molar value.

CCNC(=O)c1ccc(/C(=C2/C[C@H]3CC[C@@H](C2)N3Cc2ccsc2)c2cccc(-c3nn[nH]n3)c2)cc1 ... 5.51
CCNC(=O)c1ccc(/C(Br)=C2\C[C@H]3CC[C@@H](C2)N3Cc2ccoc2)cc1 ... 9.70

Fill in pKi for each of the 5 compounds listed.
1. CCNC(=O)c1ccc(C(=C2CC3CCC(C2)N3Cc2ccoc2)c2ccccn2)cc1
2. CCNC(=O)c1ccc(C(=C2CC3CCC(C2)N3Cc2ccoc2)c2cnc3ccccc3c2)cc1
3. CCNC(=O)c1ccc(C(=C2CC3CCC(C2)N3Cc2cccs2)c2ccccn2)cc1
4. CCNC(=O)c1ccc(C(=C2CC3CCC(C2)N3Cc2ccoc2)c2cc(C(=O)O)cc([N+](=O)[O-])c2)cc1
5. CCNC(=O)c1ccc(C(=C2CC3CCC(C2)N3Cc2ccoc2)c2cc(N)cc(C(=O)O)c2)cc1

a:
1. 7.35
2. 8.40
3. 8.22
4. 7.92
5. 5.04

Please supply pKi for each of the following items, keeping them in order.
1. CCNC(=O)c1ccc(C(=C2CC3CCC(C2)N3Cc2ccoc2)c2ccc(C(N)=O)cc2)cc1
2. C=C(C)CCN1[C@@H]2CC[C@H]1C/C(=C(/c1ccc(C(=O)NCC)cc1)c1cccc(C(C)=O)c1)C2
3. CCNC(=O)c1ccc(C(C#N)=C2CC3CCC(C2)N3Cc2ccoc2)cc1

a:
1: 8.89; 2: 8.55; 3: 9.00

* * *

- EXPERIMENT NOTES: Binding affinity against delta opioid receptor […]
- Parameters: species or system Mus musculus
MEASURED ENDPOINT: Ki (nM)
Give bare numbers, in nM.

Known results for compounds:
C=C(C)CCN1[C@@H]2CC[C@H]1C/C(=C(\c1ccc(C(=O)NCC)cc1)c1cccc(C(=O)O)c1)C2 ... 30
CCNC(=O)c1ccc(C(=C2CC3CCC(C2)N3Cc2ccoc2)c2ccccn2)cc1 ... 10
CCNC(=O)c1ccc(C(=C2CC3CCC(C2)N3Cc2ccoc2)c2cnc3ccccc3c2)cc1 ... 20
CCNC(=O)c1ccc(C(=C2CC3CCC(C2)N3Cc2ccoc2)c2ccc(C(=O)N(C)C)cc2)cc1 ... 4.6
CCNC(=O)c1ccc(C(=C2CC3CCC(C2)N3Cc2ccoc2)c2ccc(C(C)=O)cc2)cc1 ... 0.33
CCNC(=O)c1ccc(C(=C2CC3CCC(C2)N3Cc2ccoc2)c2ccc(NC(C)=O)cc2)cc1 ... 0.34

Quick request: Ki for each listed item, please.
1. CCNC(=O)c1ccc(C(=C2CC3CCC(C2)N3Cc2ccoc2)c2cccc(NC(C)=O)c2)cc1
2. CCNC(=O)c1ccc(C(=C2CC3CCC(C2)N3Cc2ccoc2)c2cccc(F)c2)cc1
3. CCNC(=O)c1ccc(C(=C2CC3CCC(C2)N3Cc2ccoc2)c2ccc(C(N)=O)cc2)cc1

a:
[0.5, 0.4, 3.9]

* * *

- EXPERIMENTAL SYSTEM: Mu-type opioid receptor (Mus musculus) (UniProt P42866)
- Sequence (P42866 whole entry): as above
- EXPERIMENT NOTES: Ratio of binding affinity against mu to that of delta opioid receptor
MEASURED ENDPOINT: Ratio
One number for each entry.

CCNC(=O)c1ccc(C(=C2CC3CCC(C2)N3Cc2ccoc2)c2cnc3ccccc3c2)cc1 ... 0.2
CCNC(=O)c1ccc(C(=C2CC3CCC(C2)N3Cc2ccoc2)c2cc(N)cc(C(=O)O)c2)cc1 ... 160
CCNC(=O)c1ccc(C(=C2CC3CCC(C2)N3Cc2ccoc2)c2ccc3c(c2)OCO3)cc1 ... 1

Okay, here is my list. What is Ratio for each of these?
1. CCNC(=O)c1ccc(C(=C2CC3CCC(C2)N3Cc2ccoc2)c2cncnc2)cc1
2. CCNC(=O)c1ccc(C(C#N)=C2CC3CCC(C2)N3Cc2ccoc2)cc1
3. CCNC(=O)c1ccc(C(=C2CC3CCC(C2)N3Cc2ccoc2)c2cccc(CN)c2)cc1
4. CCNC(=O)c1ccc(C(=C2CC3CCC(C2)N3Cc2ccoc2)c2cccnc2)cc1
5. CCNC(=O)c1ccc(C(=C2CC3CCC(C2)N3Cc2ccoc2)c2cccc(-c3nn[nH]n3)c2)cc1
6. CCNC(=O)c1ccc(C(=C2CC3CCC(C2)N3Cc2ccoc2)c2cccc(CCC(=O)O)c2)cc1

a:
1. 3
2. 3.3
3. 3.6
4. 3
5. 2100
6. 3.9
